- Tested on: COLO 205
- assay text: NCI tumour cell line growth inhibition, 48 h
Activity calls are given as the source filed them. Cut-off read from the data, not from the text of the source: active = GI50 up to about 1.1 µM and inactive = higher.
# GI50 values compiled below

Worked cases, answers included:
> print(dat)
                                   molecule           meas.value
1  CCOC(=O)c1c(SCc2cc(=O)[nH]c(=O)[nH]2)n(-c2ccccc2)c(=S)n(-c2ccccc2)c1=O  > 100 µM (inactive)
2  O=C1CC(n2cccc2)c2c(Br)sc(Br)c21 (stereo unspecified)   16.9 µM (inactive)
3          O=c1[nH]nc(Cc2ccccc2)n1Nc1ccccc1  > 100 µM (inactive)
4  Nc1ccn(CCCC(c2ccccc2)P(=O)(O)O)c(=O)n1 (stereo unspecified)  > 100 µM (inactive)
5  CC(/C=C/c1ncccc1OCCCCCC(=O)O)=N\NC1=NCCN1  > 100 µM (inactive)

// switching to the query molecule
Q: Need GI50, item `NC(=O)[N+](=CC(=S)Nc1ccccc1Cl)C(N)=O`
Result: > 100 µM (inactive)

Hello, the source for this data is ChEMBL document CHEMBL1201862, in case you need it.
